Where do these numbers come from? They come from the supplement of paper PMC8269313.

- System: 4T1
- ASSAY_REMARKS: % inhibition of 4T1 cell number vs DMSO control; higher = stronger growth inhibition
- SETUP_CONDITIONS: 1 µM; 3 days; substrate: plastic
Counter-ions that a name gives are not always drawn.
TEST_READOUT: % inhibition of 4T1 cell number (%)
Numbers only, in %.

Please give % inhibition of 4T1 cell number for each item listed below.
1. CO[C@H]1C[C@@H]2CC[C@@H](C)[C@@](O)(O2)C(=O)C(=O)N2CCCC[C@H]2C(=O)O[C@H]([C@H](C)C[C@@H]2CC[C@@H](O)[C@H](OC)C2)CC(=O)[C@H](C)/C=C(\C)[C@@H](O)[C@@H](OC)C(=O)[C@H](C)C[C@H](C)/C=C/C=C/C=C/1C
2. NS(=O)(=O)c1ccc(N=Nc2c(O)[nH]c3ccc(Br)cc23)cc1
3. COc1cc2ncnc(Nc3cccc(O)c3)c2cc1OC [WHI-P180, Hydrochloride]
4. O=C(c1ccc(Nc2nccc(-c3cc4ccccc4s3)n2)cc1)N1CCC(N2CCCC2)CC1
5. Nc1n[nH]c(N)c1N=Nc1ccc(O)cc1
6. CC(C)(C)c1nc2c3cc[nH]c(=O)c3c3cc(F)ccc3c2[nH]1
7. Oc1cccc(-c2nc(N3CCOCC3)c3oc4ncccc4c3n2)c1
8. NC(N)=NCCNS(=O)(=O)c1cccc2cnccc12 [HA 1004, Dihydrochloride]

[-50.8, -9.24, 37.6, -20.6, 12, -71.6, -7.68, -48.5]
